tested on: CCRIS mutagenicity, Ames/micronucleus/aberration tests; experiment: CCRIS mutagenicity studies; conditions: End Point: IN VITRO CHROMOSOMAL ABERRATIONS; Test System: CHO CELLS; Metabolic Activation: NONE
Calls of active or inactive are those of the source. No rule for the calls is given here.
Quantity Measured: mutagenic call

Compound	Quantity Measured	Measured
c1ccc(Nc2ccc3ccccc3c2)cc1	mutagenic call	inactive; negative
CCCNC(=O)NS(=O)(=O)c1ccc(Cl)cc1	mutagenic call	inactive; negative
C[C@]12CC[C@@H]3c4ccc(O)cc4CC[C@H]3[C@@H]1CCC2=O	mutagenic call	active; positive
O=P(O)(O)O	mutagenic call	inactive; negative
ClCC(Br)CBr (configuration not stated)	mutagenic call	active; positive
O=S(=O)(O)c1ccc(N=Nc2c(O)ccc3cc(S(=O)(=O)O)ccc23)cc1	mutagenic call	inactive; negative
Cc1noc(NS(=O)(=O)c2ccc(N)cc2)c1C	mutagenic call	inactive; negative
c1ccccc1	mutagenic call	inactive; negative
OCCNCCO	mutagenic call	inactive; negative

Origin of the recorded values: PubChem BioAssay AID1259407
